TARGET_DESC: Frizzled-2 (Homo sapiens)
PROTOCOL_NOTES: Agonist activity at frizzled-2 (unknown origin) expressed in human HEK293superTOP flash cells by luciferase reporter gene assay
Assay type: functional, cell-based
CONDITION_NOTES: HEK293
The source made the active and inactive calls. The rule behind the calls is not given here.
MEASURED_PARAMETER: Activity

SUBSTANCE	EXPERIMENTAL_RESULT
Ac-GSKGTQGRACN-NH2	inactive
Ac-MNRHNNEAGR-NH2	inactive
Ac-GDWEWGECSDNI-NH2	inactive
Ac-DLVYFELSPDFCA-NH2	inactive

* * *

TARGET_DESC: Frizzled-1 (Rattus norvegicus) (UniProt Q08463)
Sequence (Q08463 whole entry): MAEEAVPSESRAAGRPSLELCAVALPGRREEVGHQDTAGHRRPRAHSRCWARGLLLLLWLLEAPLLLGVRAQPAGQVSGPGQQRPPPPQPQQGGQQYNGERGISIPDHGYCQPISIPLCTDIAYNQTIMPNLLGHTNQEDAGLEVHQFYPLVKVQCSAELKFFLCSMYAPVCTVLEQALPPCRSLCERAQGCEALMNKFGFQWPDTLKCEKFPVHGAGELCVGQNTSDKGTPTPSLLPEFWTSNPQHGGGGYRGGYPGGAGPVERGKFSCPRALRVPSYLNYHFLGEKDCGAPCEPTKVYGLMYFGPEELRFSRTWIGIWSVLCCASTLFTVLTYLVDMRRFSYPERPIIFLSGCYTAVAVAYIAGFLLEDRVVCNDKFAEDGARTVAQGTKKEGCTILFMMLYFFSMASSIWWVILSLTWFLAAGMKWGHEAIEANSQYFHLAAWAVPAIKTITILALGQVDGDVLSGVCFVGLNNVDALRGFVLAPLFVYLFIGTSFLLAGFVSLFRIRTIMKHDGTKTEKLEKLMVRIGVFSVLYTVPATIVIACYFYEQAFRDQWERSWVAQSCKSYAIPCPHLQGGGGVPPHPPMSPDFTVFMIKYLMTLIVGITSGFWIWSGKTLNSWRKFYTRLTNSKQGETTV
PROTOCOL_NOTES: Antagonist activity at Wnt3a-stimulated rat frizzled-1 expressed in CHO cells up to 10 uM incubated for 24 hrs by luciferase reporter gene assay
Format: cell-based
CONDITION_NOTES: dose microM <=10, time 24.0 hrs
The source made the active and inactive calls. No cut-off for these calls is given here. Where a SMILES comes first, the peptide text is derived from it.
MEASURED_PARAMETER: inhibition

COMPOUND	EXPERIMENTAL_RESULT
CSCC[C@H](NC(=O)CNC(=O)[C@H](CCC(=O)O)NC(=O)[C@H](CO)NC(=O)[C@@H](NC(=O)[C@H](CCCCN)NC(=O)[C@H](CC(N)=O)NC(=O)[C@H](CS)NC(C)=O)[C@@H](C)O)C(=O)N[C@@H](CC(=O)O)C(=O)NCC(=O)N[C@@H](CS)C(=O)N[C@@H](C)C(=O)N[C@@H](C)C(N)=O (Ac-CNKTSEGMDGCAA-NH2)	inactive
CSCC[C@H](NC(=O)CNC(=O)[C@H](CCC(=O)O)NC(=O)[C@H](CO)NC(=O)[C@@H](NC(=O)[C@H](CCCCN)NC(=O)[C@H](CC(N)=O)NC(=O)[C@H](CS)NC(C)=O)[C@@H](C)O)C(=O)N[C@@H](CC(=O)O)C(=O)N[C@@H](C)C(=O)N[C@@H](CS)C(=O)N[C@@H](CCC(=O)O)C(=O)N[C@@H](CC(C)C)C(N)=O (Ac-CNKTSEGMDACEL-NH2)	inactive

* * *

TARGET_DESC: UniProtKB Q08463
PROTOCOL_NOTES: Antagonist activity at Wnt3a-stimulated rat frizzled-1 expressed in African green monkey COS7 cells up to 10 uM incubated for 24 hrs by luciferase reporter gene assay
Format: cell-based
CONDITION_NOTES: dose microM <=10, time 24.0 hrs
Activity calls are given as the source filed them. The rule behind the calls is not given here. Where a SMILES comes first, the peptide text is derived from it.
MEASURED_PARAMETER: inhibition

MOLECULE	EXPERIMENTAL_RESULT
CSCC[C@H](NC(=O)CNC(=O)[C@H](CCC(=O)O)NC(=O)[C@H](CO)NC(=O)[C@@H](NC(=O)[C@H](CCCCN)NC(=O)[C@H](C)NC(=O)[C@H](CS)NC(C)=O)[C@@H](C)O)C(=O)N[C@@H](CC(=O)O)C(=O)NCC(=O)N[C@@H](CS)C(=O)N[C@@H](CCC(=O)O)C(=O)N[C@@H](CC(C)C)C(N)=O (Ac-CAKTSEGMDGCEL-NH2)	inactive
CSCC[C@H](NC(=O)CNC(=O)[C@H](CCC(=O)O)NC(=O)[C@H](CO)NC(=O)[C@@H](NC(=O)[C@H](CCCCN)NC(=O)[C@H](CC(N)=O)NC(=O)[C@H](CS)NC(C)=O)[C@@H](C)O)C(=O)N[C@@H](CC(=O)O)C(=O)N[C@@H](C)C(=O)N[C@@H](CS)C(=O)N[C@@H](CCC(=O)O)C(=O)N[C@@H](CC(C)C)C(N)=O (Ac-CNKTSEGMDACEL-NH2)	inactive

The values you see were collected from ChEMBL document CHEMBL4806963.
